tested on: AMBEL (Ragweed, Common); assay: Preemergence herbicidal evaluation; type: in vivo, Ambrosia artemisifolia; conditions: rate 0.1250 kg/ha; rated 4-5 weeks after treatment
Param label: returns 1 when Preemergence herbicidal rating AMBEL < 4, returns -1 otherwise, including exact equality.

[[record]]
compound = "Cc1ccccc1CN1C(=O)CSC1=Nc1cc(-n2c(=O)cc(C(F)(F)F)n(C)c2=O)c(F)cc1Cl"
system_under_test = "AMBEL (Ragweed, Common)"
group_label = -1

[[record]]
compound = "COC(=O)CCCN1C(=O)CSC1=Nc1cc(-n2c(=O)cc(C(F)(F)F)n(C)c2=O)c(F)cc1Cl"
system_under_test = "AMBEL (Ragweed, Common)"
group_label = 1

[[record]]
compound = "CCOC(=O)CN1C(=O)C(CCO)S/C1=N/c1cc(-n2c(=O)cc(C(F)(F)F)n(C)c2=O)c(F)cc1Cl (centres unmarked)"
system_under_test = "AMBEL (Ragweed, Common)"
group_label = -1

[[record]]
compound = "COC(=O)COC(=O)CN1C(=O)CSC1=Nc1cc(-n2c(=O)cc(C(F)(F)F)n(C)c2=O)c(F)cc1Cl"
system_under_test = "AMBEL (Ragweed, Common)"
group_label = 1

[[record]]
compound = "C[C@H](C(=O)O)N1C(=O)CSC1=Nc1cc(-n2c(=O)cc(C(F)(F)F)n(C)c2=O)c(F)cc1Cl"
system_under_test = "AMBEL (Ragweed, Common)"
group_label = 1


Ask: Consider C[C@@H](C(=O)O)N1C(=O)CS/C1=N/c1cc(-n2c(=O)cc(C(F)(F)F)n(C)c2=O)c(F)cc1Cl . Does its Preemergence herbicidal rating AMBEL lie strictly below 4?
Reply: -1

Ask: Consider COC(=O)C(Cc1ccc(Cl)cc1)N1C(=O)CSC1=Nc1cc(-n2c(=O)cc(C(F)(F)F)n(C)c2=O)c(F)cc1Cl (racemic) . Does its Preemergence herbicidal rating AMBEL lie strictly below 4?
Reply: 1

---

system: CYPIR (Rice Flatsedge); assay: Preemergence weed control under flooded paddy conditions; format: in vivo, Cyperus iria; conditions: 0.2500 kg/ha, rated 3-4 weeks after treatment
Param label: returns Yes when herbicidal effect rating, CYPIR < 8, returns No otherwise, including exact equality.

Use these answered entries as a reference point.
[[record]]
compound = "CCOC(=O)CN1C(=O)C(COC)SC1=Nc1cc(-n2c(=O)cc(C(F)(F)F)n(C)c2=O)c(F)cc1Cl (stereo not shown)"
group_label = "Yes"

[[record]]
compound = "Cc1ccccc1CN1C(=O)CSC1=Nc1cc(-n2c(=O)cc(C(F)(F)F)n(C)c2=O)c(F)cc1Cl"
group_label = "No"

[[record]]
compound = "CN(C)c1ccc(CN2C(=O)CSC2=Nc2cc(-n3c(=O)cc(C(F)(F)F)n(C)c3=O)c(F)cc2Cl)cc1"
group_label = "Yes"

[[record]]
compound = "CCOC(=O)CN1C(=O)C(C(=O)OC(C)(C)C)SC1=Nc1cc(-n2c(=O)cc(C(F)(F)F)n(C)c2=O)c(F)cc1Cl (stereo not shown)"
group_label = "No"

[[record]]
compound = "CCOC(=O)CN1C(=O)C(CC(=O)O)SC1=Nc1cc(N2C(=O)CC(C(F)(F)F)CC2=O)c(F)cc1Cl (stereo not shown)"
group_label = "No"


Switching to the query record.
Ask: Consider COc1cc(CN2C(=O)CSC2=Nc2cc(-n3c(=O)cc(C(F)(F)F)n(C)c3=O)c(F)cc2Cl)cc(OC)c1OC . Does its herbicidal effect rating, CYPIR lie strictly below 8?
Reply: Yes

---

Tested on: IPOHE (Morningglory, Ivyleaf)
Experiment: Preemergence herbicidal evaluation
Format: in vivo, Ipomoea hederacea
Conditions: rate 0.1250 kg/ha; rated 4-5 weeks after treatment; rating scale 0-9
Description: Results of herbicide evaluation are expressed on a rating scale (0-9). The scale is based upon a visual observation of plant stand, vigor, malformation, size, chlorosis and overall plant appearance as compared with a control. […] The compounds evaluated are reported by compound number given in Example 37.
MEASUREMENT NAME: Preemergence herbicidal rating IPOHE
Give bare numbers.

Before answering, review these 3 worked examples.
[[record]]
compound = "CCOC(=O)CN1C(=O)C(COC)SC1=Nc1cc(-n2c(=O)cc(C(F)(F)F)n(C)c2=O)c(F)cc1Cl (stereo not shown)"
experimental_value = 9.0

[[record]]
compound = "CN(C)c1ccc(CN2C(=O)CSC2=Nc2cc(-n3c(=O)cc(C(F)(F)F)n(C)c3=O)c(F)cc2Cl)cc1"
experimental_value = 0.0

[[record]]
compound = "Cn1c(C(F)(F)F)cc(=O)n(-c2cc(N=C3SCC(=O)N3Cc3ccccn3)c(Cl)cc2F)c1=O"
experimental_value = 0.0


Kindly give each listed record's Preemergence herbicidal rating IPOHE.
1. C=C1SC(=Nc2cc(-n3c(=O)cc(C(F)(F)F)n(C)c3=O)c(F)cc2Cl)N(CC(=O)OCC)C1=O
2. Cn1c(C(F)(F)F)cc(=O)n(-c2cc(N=C3SCC(=O)N3Cc3ccncc3)c(Cl)cc2F)c1=O
3. Cn1c(C(F)(F)F)cc(=O)n(-c2cc(N=C3SCC(=O)N3Cc3ccc(F)cc3)c(Cl)cc2F)c1=O
4. Cn1c(C(F)(F)F)cc(=O)n(-c2cc(N=C3SCC(=O)N3Cc3cccc(Cl)c3)c(Cl)cc2F)c1=O

Reply:
9.0
0.0
9.0
0.0

---

Please provide measured Preemergence herbicidal rating ORYSAT for the entries that follow.
system: ORYSAT (Rice, Tebonnet); experiment: Preemergence herbicidal evaluation; type: in vivo, Oryza sativa, (L.) Tebonnet; conditions: rate 0.1250 kg/ha; rated 4-5 weeks after treatment; rating scale 0-9
Numbers only.

Before answering, review these 3 worked examples.
[[record]]
substance_smiles = "Cc1ccc(CN2C(=O)CSC2=Nc2cc(-n3c(=O)cc(C(F)(F)F)n(C)c3=O)c(F)cc2Cl)cc1Cl"
experimental_value = 2.0

[[record]]
substance_smiles = "Cn1c(C(F)(F)F)cc(=O)n(-c2cc(N=C3SCC(=O)N3Cc3ccccn3)c(Cl)cc2F)c1=O"
experimental_value = 0.0

[[record]]
substance_smiles = "Cn1c(C(F)(F)F)cc(=O)n(-c2cc(N=C3SCC(=O)N3Cc3ccc(F)cc3)c(Cl)cc2F)c1=O"
experimental_value = 9.0


Kindly give each listed record's Preemergence herbicidal rating ORYSAT.
1. Cn1c(C(F)(F)F)cc(=O)n(-c2cc(N=C3SCC(=O)N3Cc3ccc(Cl)c(Cl)c3)c(Cl)cc2F)c1=O
2. Cn1c(C(F)(F)F)cc(=O)n(-c2cc(N=C3SCC(=O)N3Cc3cccc(Cl)c3)c(Cl)cc2F)c1=O
3. COc1cc(CN2C(=O)CSC2=Nc2cc(-n3c(=O)cc(C(F)(F)F)n(C)c3=O)c(F)cc2Cl)cc(OC)c1OC
4. Cn1c(C(F)(F)F)cc(=O)n(-c2cc(N=C3SCC(=O)N3Cc3ccc(C(F)(F)F)cc3)c(Cl)cc2F)c1=O

Reply:
0.0
1.0
0.0
0.0

Ask: Look up Preemergence herbicidal rating ORYSAT for this compound: Cn1c(C(F)(F)F)cc(=O)n(-c2cc(N=C3SCC(=O)N3Cc3cc(Cl)cc(Cl)c3)c(Cl)cc2F)c1=O
Reply: 2.0

---

System: ECHORC (Watergrass (Calif.))
Test: Postemergence weed control under flooded paddy conditions
Type: in vivo, Echinochloa oryzoides
Details: rate 0.2500 kg/ha, postemergence weeds, 3-4 weeks after treatment
Text: Results of herbicide evaluation are expressed on a rating scale (0-9). The scale is based upon a visual observation of plant stand, vigor, malformation, size, chlorosis and overall plant appearance as compared with a control. Plastic containers containing weeds which are 3 to 5 cm tall and rice seedlings at the 1.5 to 2.5 leaf stage are flooded with water. […] The compounds evaluated are reported by compound number given in Example 37.
MEASUREMENT NAME: Herbicidal rating ECHORC
Answers are plain numbers.

[[record]]
compound = "CCOC(=O)CN1C(=O)C(Cc2ccccc2)SC1=Nc1cc(-n2c(=O)cc(C(F)(F)F)n(C)c2=O)c(F)cc1Cl (centres unmarked)"
measurement_name = "Herbicidal rating ECHORC"
experimental_value = 9.0

[[record]]
compound = "Cn1c(C(F)(F)F)cc(=O)n(-c2cc(N=C3SCC(=O)N3Cc3ccccc3)c(Cl)cc2F)c1=O"
measurement_name = "Herbicidal rating ECHORC"
experimental_value = 9.0

[[record]]
compound = "CCOC(=O)CN1C(=O)C(CC(=O)OC)S/C1=N/c1cc(-n2c(=O)cc(C(F)(F)F)n(C)c2=O)c(F)cc1Cl (centres unmarked)"
measurement_name = "Herbicidal rating ECHORC"
experimental_value = 9.0

[[record]]
compound = "CCC1SC(=Nc2cc(N3C(=O)C4=C(CCCC4)C3=O)c(F)cc2Cl)N(C)C1=O (centres unmarked)"
measurement_name = "Herbicidal rating ECHORC"
experimental_value = 3.5


Okay, next one:
Ask: Look up Herbicidal rating ECHORC for this compound: CCOC(=O)CN1C(=O)C(CC(=O)O)SC1=Nc1cc(-n2c(=O)cc(C(F)(F)F)n(C)c2=O)c(Cl)cc1Cl (centres unmarked)
Reply: 0.0
